- Assay Remarks: soluble fraction after stress (log2 fold change); higher = more stays soluble; pooled small domains, quantitative proteomics
- Assay Setup: stress: pH 4
Measured Quantity: soluble fraction (log2)
Could you respond with only the numeric value?

Query "HMIDENILSEEIKHYIETNNYAKDDKLPSERSLASLFNVSRALVRKSLISLVDVNYLYVKDKSGYYING" yields soluble fraction (log2) of -0.52

The sequence "HMAHYPGKVNNELVEFIRSEQRKTPHMTLTGLNRKLQRTYDLTLSESTVRKLVEAETILPLAREPD" showed soluble fraction (log2) equal to 0.217

Given item "HMLKETGVITASVLNVREDIGTSSNIVAQLKKGMEVNILESRAIAGSETWYRIDAGSIKGWIFGDYI" , the value recorded as its soluble fraction (log2) is -2.29

In plain terms, "HMTQSQSLQSQFEQLEKAYQDNLHLLSPKQKLIIQEAGKIIQQLPQQAQIQAKVNLYQSLSAEISKESQQ" has a documented soluble fraction (log2) of -0.107

Notebook: "HMTSLSYINDLVTGATAQGLYRIVVPNQFMDDNMANVLRRTYGYQVQSRTSLMGTFDDYIISWAPPM" , soluble fraction (log2) read as -1.59

// soluble fraction (log2) lookup, sequence = "HMVTLQEVKQYLRIDFEEEDPLLLSLLATAKQQVMNVGRMDEAQLSEHEDTARTAILYAVSYLYENRN" , result: -1.63

# soluble fraction (log2) (sequence: "HMRPDSFEAGEAEAGSRLDRLLAARLGIPRNQVQQWIGGGRVTVDAEPVRASLVVRAGMRIAWDPPPPP" ) is 0.0905

soluble fraction (log2) reported for this sequence "HMPTPLTPREHEIANLIAQGLSNREIADELVISPATAARHVANILAKLGFSSRTQVASWATRHD" : -0.237

###

- Assay Remarks: soluble fraction after stress (log2 fold change); higher = more stays soluble; pooled small domains, quantitative proteomics
- Assay Setup: stress: pH 4
soluble fraction (log2) of -1 or higher: t. Under -1: f.

Q) Quick check, soluble fraction (log2) >= -1? "HMDLANRSLDRGITILESLARNGASSLADLHRDSGIAKSTIRRLLGTLIQHRLVRRSVADGLYRVTIPLPA"
A) t

Q) Quick check, soluble fraction (log2) >= -1? "HMSSDEDELESIIKRVFADNPIELERLQNGEDKLIKFFMGLVMRQTKGKYPPKIIIDLLNKS"
A) f

Q) Confirm if soluble fraction (log2) reported for the sequence "HMNETVTNQTVLDLLKEGFTSEEIIGAIENSSTRTITYDINFMRQLKAAGADVTLTTYLQKIAKKDM" is -1 or above.
A) t

Q) Confirm if soluble fraction (log2) reported for the sequence "HMNMPHEIDANFISSLGRLIDNHGKNYGDFQIFREMFLDYFPRFDELSSNNKEKINRRLYKFFETLFG" is -1 or above.
A) f

Q) Given the entry "HMLMTGSLQTKHGKYYVVVRIPDGLGNTKAKWINTGIPTDGNNKRKAQQRRIEILTELEENKD" , answer whether its soluble fraction (log2) meets or surpasses -1.
A) t

Q) Record "HMPTTNIRAFRLREADPESVKEALSMVMPKTSIYVDARTKSVLVVGLLDELARAAEIVALIDQP" ; criterion: soluble fraction (log2) no lower than -1. Met?
A) f
